target: T1, human programmed death 1 (hPD-1), extracellular region (amino acids 34-150) (human, UniProt Q15116 34-150); assay: SPR; Biacore T200; hPD-1 immobilised on a CM5 chip by amine coupling (5000 RU); peptides or hPD-L1 injected 90 s, dissociation 120 s; PBS-P buffer pH 7.4, 25°C, 30 μl/min; steady-state model; details: both partners purified
T1 construct: extracellular region of human PD-1, amino acids 34-150, cloned into pET28a between NcoI and NdeI sites; purification was by cation exchange and gel filtration; also called CD279
T1 sequence (Q15116 34-150): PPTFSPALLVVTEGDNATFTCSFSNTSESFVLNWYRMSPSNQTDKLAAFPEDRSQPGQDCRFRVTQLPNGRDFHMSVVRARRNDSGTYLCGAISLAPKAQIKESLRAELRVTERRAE
Collected Kd values appear next to each entry.
All answers are understood in µM, so give the number only.

Consider the binder LDYGDKREGQMAE (peptide designed with anchor residues R113, M115, A121, D122 and Y123 of hPD-L1; source: synthetic peptide (Fmoc solid-phase synthesis)) [Ar5M_1] and give its recorded Kd.
21.6
